Reference source: the supplement of paper PMC12494721

Test system: Ruminococcus gnavus DSM 108212
Assay: fold change of Tryptamine concentration vs plate DMSO controls (fold change (ratio)); higher = more amine produced, active = hit call of the paper (significant change in both replicates, either direction)
Settings: 20 µM; incubation time: 27 h, anaerobic, 37 °C
Where a name gives a salt, the structure may show the parent alone.
Could you please report measured fold change of Tryptamine concentration for the items listed next?
Numbers only.

Previously resolved entries follow.
| molecule | fold change of Tryptamine concentration |
| --- | --- |
| CCOC(=O)OC1=C(c2cc(C)ccc2C)C(=O)N[C@]12CC[C@@H](OC)CC2 | 1.02 |
| C#CCN1C(=O)COc2cc(F)c(N3C(=O)C4=C(CCCC4)C3=O)cc21 | 0.98 |
| CC1(C)C(C=C(Cl)Cl)C1C(=O)OC(C#N)c1cccc(Oc2ccccc2)c1 (mixture of isomers) | 1.02 |

Fill in fold change of Tryptamine concentration for each of the 7 molecules listed.
1. CCC(=O)O[C@@](Cc1ccccc1)(c1ccccc1)[C@@H](C)CN(C)C [Levopropoxyphene napsylate]
2. CCNC(=O)NC(=O)/C(C#N)=N/OC
3. COP(=S)(OC)Oc1ccc(SC)c(C)c1
4. CCC(=O)O[C@H]1CC[C@H]2[C@@H]3CCC4=CC(=O)CC[C@]4(C)[C@H]3CC[C@]12C [Testosterone propionate]
5. Cc1ccc(/N=C/N(C)/C=N/c2ccc(C)cc2C)c(C)c1
6. N[C@@H]1C[C@H]1c1ccccc1 [Tranylcypromine hydrochloride]
7. COc1ccc(Cc2nccc3cc(OC)c(OC)cc23)cc1OC [Papaverine hydrochloride]

1. 1.01
2. 1
3. 1.08
4. 1.08
5. 0.939
6. 0.964
7. 0.99

* * *

System: Ruminococcus gnavus DSM 108212
Test: growth (OD595) fold change vs plate DMSO controls (fold change (ratio)); higher = more growth
Conditions: 20 µM; incubation time: 27 h, anaerobic, 37 °C
Structures can show the parent of a compound that is named as a salt.
Could you please report measured growth for the items listed next?
Give bare numbers.

Previously resolved entries follow.
| molecule | growth |
| --- | --- |
| NCC(O)c1ccc(O)cc1 (stereo not drawn) [Octopamine hydrochloride] | 0.994 |
| CC1(C)[C@H](/C=C(\Cl)C(F)(F)F)[C@@H]1C(=O)OC(C#N)c1cccc(Oc2ccccc2)c1 (stereo partly drawn) | 0.999 |
| C=CC(N)=O [Acrylamide] | 0.973 |
| Cc1cc(C)nc(Nc2ccccc2)n1 | 1.01 |
| CCc1cccc(C)c1N(C(=O)CCl)[C@@H](C)COC | 0.912 |

Fill in growth for each of the 3 molecules listed.
1. c1ccc2c(c1)ccc1c3ccccc3sc21 [Benzo[b]naphtho[2,1-d]thiophene]
2. CC[C@@H](CO)NC(=O)[C@@H]1C=C2c3cccc4[nH]cc(c34)C[C@H]2N(C)C1 [Methylergometrine maleate]
3. c1ccc2c(c1)OCC(C1=NCCN1)O2 (stereo not drawn) [Idazoxan hydrochloride]

1. 1.07
2. 1.11
3. 0.978

* * *

Test system: Ruminococcus gnavus DSM 108212
Assay: growth (OD595) fold change vs plate DMSO controls (fold change (ratio)); higher = more growth
Details: 20 µM; incubation time: 27 h, anaerobic, 37 °C
Could you please report measured growth for the items listed next?
Answers are plain numbers.

| compound | system.name | readout.label | measured.result |
| --- | --- | --- | --- |
| CNC(C)(C)Cc1ccccc1 [Mephentermine hemisulfate] | Ruminococcus gnavus DSM 108212 | growth | 0.991 |
| CCC(C)(c1ccc(O)cc1)c1ccc(O)cc1 | Ruminococcus gnavus DSM 108212 | growth | 1.02 |

Now look at this one.
Using the record for CC1(C)C(C=C(Cl)Cl)C1C(=O)OC(C#N)c1ccc(F)c(Oc2ccccc2)c1 (mixture of isomers) , report its growth.
1

* * *

System: Klebsiella aerogenes DSM 30053
Assay: fold change of Putrescine concentration vs plate DMSO controls (fold change (ratio)); higher = more amine produced, active = hit call of the paper (significant change in both replicates, either direction)
Settings: 20 µM; incubation time: 27 h, anaerobic, 37 °C
Where a name gives a salt, the structure may show the parent alone.
Could you please report measured fold change of Putrescine concentration for the items listed next?
One number for each entry.

Previously resolved entries follow.
| molecule | fold change of Putrescine concentration |
| --- | --- |
| O=C(O)C(F)(F)C(F)(F)C(F)(F)C(F)(F)C(F)(F)C(F)(F)C(F)(F)C(F)(F)F | 0.994 |
| CCN(CC)CCOC(=O)C(O)(c1ccccc1)c1ccccc1 [Benactyzine hydrochloride] | 0.992 |
| CCC(=O)O[C@H]1CC[C@H]2[C@@H]3CCC4=CC(=O)CC[C@]4(C)[C@H]3CC[C@]12C [Testosterone propionate] | 1.02 |
| c1ccc2c(c1)cc1ccc3cccc4ccc2c1c34 [Benzo[a]pyrene] | 1.01 |
| CCNC(=O)NC(=O)/C(C#N)=N/OC | 1.02 |

Fill in fold change of Putrescine concentration for each of the 5 molecules listed.
1. CNC(=O)Oc1ccc2c(c1)[C@]1(C)CCN(C)[C@@H]1N2C [Eserine hemisulfate salt]
2. C[N+]1(C)[C@@H]2CC[C@H]1C[C@@H](OC(=O)C(CO)c1ccccc1)C2 (stereo not given in full) [Methylatropine nitrate]
3. CCN(CC)N=O
4. C=CC[C@]1(O)CC[C@H]2[C@@H]3CCC4=CC(=O)CCC4=C3C=C[C@@]21C
5. CC[C@@]1([C@@H]2O[C@@H]([C@H]3O[C@@](O)(CO)[C@H](C)C[C@@H]3C)C[C@@H]2C)CC[C@H]([C@]2(C)CC[C@]3(C[C@H](O)[C@@H](C)[C@@H]([C@@H](C)[C@@H](OC)[C@H](C)C(=O)O)O3)O2)O1 [Monensin sodium salt]

0.996
1.02
0.999
1.01
1

Fill in fold change of Putrescine concentration for each of the 4 molecules listed.
1. CNC(=O)Oc1cccc(/N=C/N(C)C)c1
2. O=c1[nH]c2ccccc2n1C1CCN(CCCC(c2ccc(F)cc2)c2ccc(F)cc2)CC1 [Pimozide]
3. CS(=O)(=O)NC(=O)c1cc(Oc2ccc(C(F)(F)F)cc2Cl)ccc1[N+](=O)[O-]
4. Clc1ccc(C(c2ccc(Cl)cc2)C(Cl)(Cl)Cl)cc1

1. 1
2. 1.01
3. 1.01
4. 1.02

* * *

Could you please report measured fold change of Tryptamine concentration for the items listed next?
Test system: Ruminococcus gnavus DSM 108212
Experiment: fold change of Tryptamine concentration vs plate DMSO controls (fold change (ratio)); higher = more amine produced, active = hit call of the paper (significant change in both replicates, either direction)
Details: 20 µM; incubation time: 27 h, anaerobic, 37 °C
Answers are plain numbers.

| compound | measured.result |
| --- | --- |
| CNC(=O)c1cc(Cl)cc(C)c1NC(=O)c1cc(Br)nn1-c1ncccc1Cl | 0.997 |
| NC(=O)CN1CCCC1=O [Piracetam] | 1.02 |

Now look at this one.
Using the record for O=c1[nH]c2ccccc2n1CCCN1CCC(n2c(=O)[nH]c3cc(Cl)ccc32)CC1 [Domperidone] , report its fold change of Tryptamine concentration.
0.984

* * *

Could you please report measured fold change of Cadaverine concentration for the items listed next?
Tested on: Escherichia coli IAI1
Experiment: fold change of Cadaverine concentration vs plate DMSO controls (fold change (ratio)); higher = more amine produced, active = hit call of the paper (significant change in both replicates, either direction)
Settings: 20 µM; incubation time: 27 h, anaerobic, 37 °C
One number for each entry.

Previously resolved entries follow.
| compound | readout.label | measured.result |
| --- | --- | --- |
| N#C/N=C1\SCCN1Cc1ccc(Cl)nc1 | fold change of Cadaverine concentration | 0.991 |
| O=[N+]([O-])O[C@@H]1CO[C@H]2[C@@H]1OC[C@@H]2O [Isosorbide mononitrate] | fold change of Cadaverine concentration | 0.975 |
| CCC1(c2ccc(N)cc2)CCC(=O)NC1=O (stereo not drawn) [Glutethimide, para-amino] | fold change of Cadaverine concentration | 0.974 |
| COP(=S)(OC)SCN1C(=O)c2ccccc2C1=O | fold change of Cadaverine concentration | 0.997 |
| CCOP(=S)(OCC)Oc1cc(C)nc(C(C)C)n1 | fold change of Cadaverine concentration | 1.01 |
| O=C(CCCN1CCC(n2c(=O)[nH]c3ccccc32)CC1)c1ccc(F)cc1 | fold change of Cadaverine concentration | 1.02 |
| O=C(O)C(F)(F)C(F)(F)C(F)(F)C(F)(F)C(F)(F)C(F)(F)C(F)(F)C(F)(F)C(F)(F)F | fold change of Cadaverine concentration | 1.01 |
| Cc1ccccc1[N+](=O)[O-] | fold change of Cadaverine concentration | 1.01 |

Fill in fold change of Cadaverine concentration for each of the 3 compounds listed.
1. CC(C)N(C)S(=O)(=O)NC(=O)c1cc(-n2c(=O)cc(C(F)(F)F)n(C)c2=O)c(F)cc1Cl
2. CC(=O)O[C@H]1C[C@H](O[C@H]2[C@@H](O)C[C@H](O[C@H]3[C@@H](O)C[C@H](O[C@H]4CC[C@@]5(C)[C@H](CC[C@@H]6[C@@H]5C[C@@H](O)[C@]5(C)[C@@H](C7=CC(=O)OC7)CC[C@]65O)C4)O[C@@H]3C)O[C@@H]2C)O[C@H](C)[C@H]1O[C@@H]1O[C@H](CO)[C@@H](O)[C@H](O)[C@H]1O [Lanatoside C]
3. CN(C)C(=O)Oc1ccc[n+](C)c1 [Pyridostigmine iodide]

[1.01, 1.02, 1.01]

Fill in fold change of Cadaverine concentration for each of the 2 compounds listed.
1. CS(=O)(=O)c1ccc(C(=O)C2C(=O)CCCC2=O)c([N+](=O)[O-])c1
2. CC[C@@H](C(N)=O)N1CCCC1=O

[0.973, 1.02]
